TARGET_SYSTEM: D(2) dopamine receptor (Homo sapiens, UniProt P14416)
Sequence (P14416 whole entry): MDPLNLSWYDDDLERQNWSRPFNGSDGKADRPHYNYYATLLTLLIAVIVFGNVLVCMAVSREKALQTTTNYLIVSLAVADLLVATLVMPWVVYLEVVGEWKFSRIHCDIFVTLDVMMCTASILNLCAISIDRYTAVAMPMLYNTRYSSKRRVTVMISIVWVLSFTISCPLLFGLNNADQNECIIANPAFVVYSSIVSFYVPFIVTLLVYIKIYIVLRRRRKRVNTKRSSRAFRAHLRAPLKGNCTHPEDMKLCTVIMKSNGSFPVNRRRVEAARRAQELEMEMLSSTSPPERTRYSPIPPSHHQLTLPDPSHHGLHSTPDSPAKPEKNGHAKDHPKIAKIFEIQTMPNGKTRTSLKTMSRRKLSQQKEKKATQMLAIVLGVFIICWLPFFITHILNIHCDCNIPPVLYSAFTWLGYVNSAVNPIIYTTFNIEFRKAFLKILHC
MEASUREMENT_NOTES: GPCRScan assay: inhibition of D2
ENDPOINT_NAME: pKi
Please treat pKi as minus the base-10 logarithm of the molar concentration.

Memo: CC(C)(C)OC(=O)N1CCCC1CNC1CCC(c2cc(F)ccc2F)(S(=O)(=O)c2ccc(Cl)cc2)CC1 (stereo unspecified) [GSI-NC] , reported pKi: 5.91

---

TARGET_SYSTEM: UniProtKB P34969
Sequence (P34969 whole entry): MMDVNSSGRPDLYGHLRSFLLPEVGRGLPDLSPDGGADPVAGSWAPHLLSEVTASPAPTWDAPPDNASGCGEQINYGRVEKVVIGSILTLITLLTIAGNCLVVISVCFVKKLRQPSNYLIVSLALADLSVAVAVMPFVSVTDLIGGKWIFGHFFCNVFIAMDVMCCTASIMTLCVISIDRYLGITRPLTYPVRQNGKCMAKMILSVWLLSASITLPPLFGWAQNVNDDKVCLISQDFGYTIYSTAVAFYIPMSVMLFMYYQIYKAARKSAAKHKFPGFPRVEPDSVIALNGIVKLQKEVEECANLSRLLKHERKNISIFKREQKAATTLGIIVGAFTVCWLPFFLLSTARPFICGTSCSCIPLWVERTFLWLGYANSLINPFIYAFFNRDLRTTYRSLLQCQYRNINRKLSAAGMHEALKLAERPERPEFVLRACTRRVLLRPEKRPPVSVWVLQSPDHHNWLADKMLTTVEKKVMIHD
MEASUREMENT_NOTES: GPCRScan assay: inhibition of 5-HT7A
Design: radioligand conc. used [nm] 5.0 – 6.0, parental cells Stable HEK
PARTICULARS: read-out: Ki
ENDPOINT_NAME: Ki (nM)
Value expressed in nM; do not type the unit.

Memo: CC(C)(C)OC(=O)N1CCCC1CNC1CCC(c2cc(F)ccc2F)(S(=O)(=O)c2ccc(Cl)cc2)CC1 (stereo unspecified) , reported Ki: 826

---

TARGET_SYSTEM: Sigma non-opioid intracellular receptor 1 (Homo sapiens, UniProt Q99720)
Sequence (Q99720 whole entry): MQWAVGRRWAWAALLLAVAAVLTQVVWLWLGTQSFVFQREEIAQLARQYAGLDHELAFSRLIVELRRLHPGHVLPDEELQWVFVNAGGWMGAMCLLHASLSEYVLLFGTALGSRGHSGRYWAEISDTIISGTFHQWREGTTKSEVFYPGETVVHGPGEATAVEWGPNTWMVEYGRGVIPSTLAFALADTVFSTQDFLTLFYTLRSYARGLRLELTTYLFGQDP
MEASUREMENT_NOTES: GPCRScan assay: inhibition of Sigma 1
ENDPOINT_NAME: Ki (nM)
Value expressed in nM; do not type the unit.

Memo: CC(C)(C)OC(=O)N1CCCC1CNC1CCC(c2cc(F)ccc2F)(S(=O)(=O)c2ccc(Cl)cc2)CC1 (stereo unspecified) , reported Ki: 223
